- ASSAYED_TARGET: pY705-STAT3 in PBMC (Homo sapiens)
- Construct: Cryopreserved Peripheral Blood Mononuclear Cells (PBMC) are from AllCells; host or cells: cryopreserved PBMC
- Sequence (P40763 whole entry): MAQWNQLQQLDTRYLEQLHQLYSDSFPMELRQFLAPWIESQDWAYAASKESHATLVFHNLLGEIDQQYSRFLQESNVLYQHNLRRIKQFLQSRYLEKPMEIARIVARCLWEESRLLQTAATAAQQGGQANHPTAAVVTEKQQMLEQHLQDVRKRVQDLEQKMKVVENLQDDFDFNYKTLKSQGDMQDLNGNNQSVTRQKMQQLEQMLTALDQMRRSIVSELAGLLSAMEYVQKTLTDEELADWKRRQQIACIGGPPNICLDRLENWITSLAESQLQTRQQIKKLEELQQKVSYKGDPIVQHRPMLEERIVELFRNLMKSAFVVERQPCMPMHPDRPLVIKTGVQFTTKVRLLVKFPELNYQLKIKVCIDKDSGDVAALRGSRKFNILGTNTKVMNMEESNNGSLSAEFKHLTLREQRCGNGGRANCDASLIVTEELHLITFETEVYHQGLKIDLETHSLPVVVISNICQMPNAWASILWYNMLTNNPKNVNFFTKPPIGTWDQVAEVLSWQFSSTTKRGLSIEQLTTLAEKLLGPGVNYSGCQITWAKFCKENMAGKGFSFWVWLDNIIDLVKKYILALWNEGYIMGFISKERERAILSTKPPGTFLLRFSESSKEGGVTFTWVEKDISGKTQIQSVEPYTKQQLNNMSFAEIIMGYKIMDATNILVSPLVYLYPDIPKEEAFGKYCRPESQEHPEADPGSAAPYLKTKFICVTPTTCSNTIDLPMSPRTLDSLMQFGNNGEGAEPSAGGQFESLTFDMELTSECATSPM
- ASSAY_OVERVIEW: MSD-pSTAT-PBMC Assay (pSTAT3, IL-6 stimulated)
- Format: cell-based
- CONDITION_INFO: PBMC, compound 3 hrs, then 10 ng/mL IL-6 for 10 min; Table 115; read-out: STAT3
QUANTITY: IC50

1. COc1ccncc1C1CN(C(=O)[C@@H]2CC[C@@H]3CCC[C@H](NC(=O)c4cc5cc([C@H](F)[P@@](=O)(N[C@@H](C)C(=O)OC(C)C)Oc6ccccc6)ccc5s4)C(=O)N32)C1 (single isomer, unassigned) [Compound 1023]; 100 to 1000 nM
2. CC(C)OC(=O)C(C)(C)NP(=O)(Cc1ccc2sc(C(=O)N[C@H]3CCC[C@H]4CC[C@@H](C(=O)N5CC(c6cccnc6)C5)N4C3=O)cc2c1)Oc1ccccc1 (stereo partly shown); 100 to 1000 nM
3. CCCOC(=O)[C@H](C)N[P@](=O)(Oc1ccccc1)[C@@H](F)c1ccc2sc(C(=O)N[C@H]3CCC[C@H]4CC[C@@H](C(=O)N5CC(c6cnccc6N6CCOCC6)C5)N4C3=O)cc2c1 (single isomer, unassigned) [Compound 1046]; 100 to 1000 nM
4. CN=S(C)(=O)CC1(OC)CN(C(=O)C2CCC3CCCC(NC(=O)c4cc5cc(C(F)(F)P(=O)(OCCSC(=O)C(C)(C)C)OCCSC(=O)C(C)(C)C)ccc5s4)C(=O)N32)C1 (stereo not shown); < 100 nM

Each recorded value in this set is attributed to patent US20250215029A1.
